The reported measurements were obtained from patent US20250250357A1.

SUBJECT_OF_TEST: T1, human MSLN-R1-his protein (human, UniProt Q13421 296-390)
T1 construct: Region 1 of human mesothelin, made in HEK293E cells, His-tagged; also called human MSLN-R1 protein; hMSLN-R1-his; not shown: His tag
T1 chain: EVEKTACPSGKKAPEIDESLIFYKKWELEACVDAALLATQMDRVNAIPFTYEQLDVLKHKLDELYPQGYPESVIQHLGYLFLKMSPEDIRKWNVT
PROTOCOL: ELISA on coated MSLN-R1; no antibody (blank)
ENDPOINT: OD450 (OD450)
Lab book: enter the figure in OD450, no units written.

As a guide, the following entries are already answered.
BINDER	OD450 (OD450)
S009-F8-28.23 (antibody, human IgG1, kappa, V domains shown) VH: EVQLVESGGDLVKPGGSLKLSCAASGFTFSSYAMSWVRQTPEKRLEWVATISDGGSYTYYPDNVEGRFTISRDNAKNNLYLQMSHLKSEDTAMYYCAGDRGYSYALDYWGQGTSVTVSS VL: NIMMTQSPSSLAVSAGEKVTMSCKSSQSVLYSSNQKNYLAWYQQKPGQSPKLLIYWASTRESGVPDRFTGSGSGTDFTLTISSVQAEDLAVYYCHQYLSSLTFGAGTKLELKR	0.04
S009-F8-12.13 (antibody, human IgG1, kappa, V domains shown) VH: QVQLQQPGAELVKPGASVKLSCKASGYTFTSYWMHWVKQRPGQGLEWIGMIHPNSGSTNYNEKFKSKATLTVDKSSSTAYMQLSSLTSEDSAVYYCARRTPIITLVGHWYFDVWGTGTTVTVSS VL: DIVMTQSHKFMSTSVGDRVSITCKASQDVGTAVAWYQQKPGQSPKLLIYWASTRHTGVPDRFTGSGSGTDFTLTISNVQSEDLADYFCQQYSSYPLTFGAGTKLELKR	0.05
S009-F8-18.9 (antibody, human IgG1, kappa, V domains shown) VH: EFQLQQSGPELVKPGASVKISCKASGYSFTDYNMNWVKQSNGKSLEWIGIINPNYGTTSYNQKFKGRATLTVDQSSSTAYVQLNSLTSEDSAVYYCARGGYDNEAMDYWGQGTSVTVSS VL: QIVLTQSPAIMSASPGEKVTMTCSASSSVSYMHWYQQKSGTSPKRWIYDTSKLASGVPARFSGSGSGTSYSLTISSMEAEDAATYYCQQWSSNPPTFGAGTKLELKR	0.05
S009-F8-27.1 (antibody, human IgG1, kappa, V domains shown) VH: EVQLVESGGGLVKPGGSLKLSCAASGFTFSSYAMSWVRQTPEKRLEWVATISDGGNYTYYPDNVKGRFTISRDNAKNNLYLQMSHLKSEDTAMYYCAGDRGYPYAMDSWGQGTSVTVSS VL: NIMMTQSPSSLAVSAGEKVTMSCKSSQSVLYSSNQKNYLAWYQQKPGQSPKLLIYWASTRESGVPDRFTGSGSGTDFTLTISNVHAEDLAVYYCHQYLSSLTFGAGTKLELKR	0.05

Now look at this entry.
The binder identified as S009-F8-29.1 (antibody, human IgG1, kappa, V domains shown) VH: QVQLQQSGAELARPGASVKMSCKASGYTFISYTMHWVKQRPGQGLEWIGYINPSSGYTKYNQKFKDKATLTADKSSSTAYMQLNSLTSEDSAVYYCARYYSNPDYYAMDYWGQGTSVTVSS VL: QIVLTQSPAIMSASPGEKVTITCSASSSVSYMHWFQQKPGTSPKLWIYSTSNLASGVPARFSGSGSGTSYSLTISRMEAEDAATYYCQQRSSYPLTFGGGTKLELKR registered its OD450 at 0.04
